Reported pIC50 against Angiopoietin-1 receptor (Homo sapiens, UniProt Q02763), gathered from multiple publications, appears below.
pIC50: −log10 of the molar value.

Please review the entries below; each comes with its answer.
Tested on Angiopoietin-1 receptor (Homo sapiens, UniProt Q02763): "Cc1cc(Oc2ccc(Nc3nc4c(Br)cc(C(F)(F)F)cc4[nH]3)cc2)c(C)c2sc(N)nc12" . Observed pIC50: 6.41

Tested on Angiopoietin-1 receptor (Homo sapiens, UniProt Q02763): "CCCNc1nccc(COc2nsnc2N2CCN(C(=O)Nc3cc(C(F)(F)F)cc(C(F)(F)F)c3)CC2)n1" . Observed pIC50: 6.00 to 7.30

Tested on Angiopoietin-1 receptor (Homo sapiens, UniProt Q02763): "Nc1ncc(-c2cccc(S(N)(=O)=O)c2)c2occ(-c3ccc(NC(=O)Nc4cc(C(F)(F)F)ccc4F)cc3)c12" . Observed pIC50: 8.00 to 9.00

Now look at this entry.
Tested on Angiopoietin-1 receptor (Homo sapiens, UniProt Q02763): "COCCOc1ccc(Nc2ncnc(-n3c(N)nc4ccccc43)n2)cc1OC" . Observed pIC50: < 4.96

###

Reported pIC50 against Angiopoietin-1 receptor (Homo sapiens, UniProt Q02763), gathered from multiple publications, appears below.
pIC50: −log10 of the molar value.

Please review the entries below; each comes with its answer.
Tested on Angiopoietin-1 receptor (Homo sapiens, UniProt Q02763): "CCNc1cc(COc2nsnc2N2CCN(C(=O)Nc3cc(C(F)(F)F)cc(C(F)(F)F)c3)CC2)ccn1" . Observed pIC50: > 7.30

Tested on Angiopoietin-1 receptor (Homo sapiens, UniProt Q02763): "OC[C@@H](Nc1nc(-c2ccncc2)nc2ccccc12)c1ccccc1" . Observed pIC50: 5.00 to 6.00

Tested on Angiopoietin-1 receptor (Homo sapiens, UniProt Q02763): "CCc1cccc(NC(=O)N2CCN(c3ncccc3OCc3ccnc(N)n3)CC2)c1" . Observed pIC50: > 7.30

Further cases:
Tested on Angiopoietin-1 receptor (Homo sapiens, UniProt Q02763): "COc1cc(Nc2ncnc(Nc3cc(-c4cccc(C)c4)n[nH]3)n2)cc(OC)c1OC" . Observed pIC50: < 4.98

###

Reported IC50 against Angiopoietin-1 receptor (Homo sapiens, UniProt Q02763), gathered from multiple publications, appears below.

Please review the entries below; each comes with its answer.
Entry "COc1ccc(-c2nc(-c3ccccc3)nn2CCN(C(=O)Cc2cccc3ccccc23)C2CCCC2)cc1Cl" , IC50 reported as ≥ 10 µM

Entry "COc1cc(Nc2ncnc(-n3ccc4ccc(F)cc43)n2)cc(OC)c1OC" , IC50 reported as > 11.4 µM

Entry "COc1ccc(-c2nc(-c3ccncc3)nn2CCN(C(=O)Nc2ccc(Cl)cc2C(F)(F)F)C2CCCC2)cc1Cl" , IC50 reported as 1 to 10 µM

Entry NCC1CC(n2cc(-c3ccc4c(ccn4Cc4ccccc4)c3)c3c(N)ncnc32)C1 (centres unmarked) , IC50 reported as 0.495 µM

Further cases:
Entry "CN1CCN(c2cccc(-c3cnn4c(N)c(Cc5cccc(Br)c5)cnc34)c2)CC1" , IC50 reported as > 10 µM

Entry "Cc1nc2c(-c3cccc(N4CC[N+](C)([O-])CC4)c3)cnn2c(N)c1-c1ccc(F)cc1" , IC50 reported as > 10 µM

Entry "COc1cc(Nc2ncnc(Nc3ccccc3F)n2)cc(OC)c1OC" , IC50 reported as > 12.1 µM

Entry "Cc1cccc(Nc2ncnc(Nc3cccc(Br)c3)n2)c1" , IC50 reported as > 12.6 µM

###

Reported IC50 against Angiopoietin-1 receptor (Homo sapiens), gathered from multiple publications, appears below.

Entry "CN1CCN(CC(=O)Nc2cc(COc3cccnc3N3CCN(C(=O)Nc4cc(C(F)(F)F)cc(C(F)(F)F)c4)CC3)ccn2)CC1" , IC50 reported as < 50 nM

Entry "Oc1cc2ccccc2cc1Nc1nc(-c2ccncc2)nc2ccccc12" , IC50 reported as 1000 to 10000 nM

Entry "Nc1nccc(COc2nsnc2N2CCN(C(=O)Nc3ccccc3)CC2)n1" , IC50 reported as ≥ 10000 nM

Entry "CCOc1ccccc1NC(=O)N(CCn1nc(-c2ccncc2)nc1-c1ccc(OC)c(Cl)c1)C1CCCC1" , IC50 reported as 1000 to 10000 nM

Further cases:
Entry "COc1ccc(C2CCCCC2)cc1NC(=O)c1ccc(C)c(Oc2ncccc2-c2cn[nH]c2)c1" , IC50 reported as ≤ 100 nM

###

Reported pIC50 against Angiopoietin-1 receptor (Homo sapiens, UniProt Q02763), gathered from multiple publications, appears below.
pIC50: −log10 of the molar value.

Tested on Angiopoietin-1 receptor (Homo sapiens, UniProt Q02763): "O=C1OCc2ccc(Nc3ncnc(Nc4cc(-c5ccco5)n[nH]4)n3)cc21" . Observed pIC50: < 4.92

Further cases:
Tested on Angiopoietin-1 receptor (Homo sapiens, UniProt Q02763): "CNC(=O)c1cc(Oc2ccc3c(c2)CCN3C(=O)Nc2ccc(F)c(C(F)(F)F)c2)ccn1" . Observed pIC50: > 6.60

Tested on Angiopoietin-1 receptor (Homo sapiens, UniProt Q02763): "O=C(Cc1cccc2ccccc12)N(CCn1nc(-c2ccncc2)nc1-c1cccc(C(F)(F)F)c1)C1CCCC1" . Observed pIC50: > 7.30

Tested on Angiopoietin-1 receptor (Homo sapiens, UniProt Q02763): "N#Cc1nc(OCc2ccncc2)c(N2CCN(C(=O)Nc3cc(C(F)(F)F)cc(C(F)(F)F)c3)CC2)nc1C#N" . Observed pIC50: 6.00 to 7.30

Tested on Angiopoietin-1 receptor (Homo sapiens, UniProt Q02763): "COc1ccc(-c2cnn3c(N)c(-c4ccc(F)cc4)c(C)nc23)cc1" . Observed pIC50: < 5.00

###

Reported IC50 against Angiopoietin-1 receptor (Homo sapiens, UniProt Q02763), gathered from multiple publications, appears below.

Entry "COc1ccc(-c2nc(-c3ccncc3)nn2CCN(C(=O)Nc2cccc(Cl)c2C)C2CCCC2)cc1Cl" , IC50 reported as 0.05 to 1 µM

Entry "COc1ccc(Nc2ncnc(-c3ccccc3)n2)cc1" , IC50 reported as > 16.2 µM

Entry "COc1ccc(-c2nc(-c3ccncc3)nn2CCN(C(=O)Nc2cc(Cl)ccc2Cl)C2CCCC2)cc1Cl" , IC50 reported as ≥ 10 µM

Entry "Nc1nccc(COc2ccc(Cl)nc2N2CCN(C(=O)Nc3cc(C(F)(F)F)cc(C(F)(F)F)c3)CC2)n1" , IC50 reported as < 0.05 µM

Entry "COc1cc(Nc2ncnc(Nc3[nH]ncc3-c3ccccc3)n2)cc(OC)c1OC" , IC50 reported as > 10.7 µM

Further cases:
Entry "COc1cc(Nc2ncnc(-c3ccsc3)n2)cc(OC)c1OC" , IC50 reported as 10.2 to 13.1 µM

Entry "COc1cc(Nc2ncnc(-c3cccc4ccccc34)n2)cc(OC)c1OC" , IC50 reported as 6.18 to 9.01 µM

Entry "COc1ccc(-c2nc(-c3ccncc3)nn2CCN(C(=O)Nc2cc(OC)c(OC)c(OC)c2)C2CCCC2)cc1Cl" , IC50 reported as ≥ 10 µM

###

Reported IC50 against Angiopoietin-1 receptor (Homo sapiens, UniProt Q02763), gathered from multiple publications, appears below.

Please review the entries below; each comes with its answer.
Entry "O[C@@H]1Cc2ccccc2[C@@H]1Nc1nc(-c2ccncc2)nc2ccccc12" , IC50 reported as < 50 nM

Entry CC1CN(C(=O)Nc2cc(C(F)(F)F)cc(C(F)(F)F)c2)CCN1c1nccnc1OCc1ccncc1 (centres unmarked) , IC50 reported as < 50 nM

Entry "COCCOc1ccc(Nc2ncnc(Nc3ccc4[nH]ccc4c3)n2)cc1OCCOC" , IC50 reported as > 9990 nM

Now look at this entry.
Entry "Nc1nccc(COc2ccccc2N2CCN(C(=O)Nc3cc(C(F)(F)F)ccc3F)CC2)n1" , IC50 reported as < 50 nM

###

Reported pIC50 against Angiopoietin-1 receptor (Homo sapiens), gathered from multiple publications, appears below.
pIC50: −log10 of the molar value.

Please review the entries below; each comes with its answer.
Tested on Angiopoietin-1 receptor (Homo sapiens): COC(=O)C(c1ccccc1)c1ncnc(Nc2cc(OC)c(OC)c(OC)c2)n1 (centres unmarked) . Observed pIC50: < 4.96

Tested on Angiopoietin-1 receptor (Homo sapiens): "Nc1nc2cc(CCCO)ccc2n1Cc1ccc(NS(=O)(=O)c2cccc(Cl)c2Cl)cc1" . Observed pIC50: 6.49

Tested on Angiopoietin-1 receptor (Homo sapiens): "O=C(Nc1cccc(C(F)(F)F)c1)N1CCCN(c2nsnc2OCc2ccncc2)CC1" . Observed pIC50: 5.00 to 6.00

Further cases:
Tested on Angiopoietin-1 receptor (Homo sapiens): "COCCOc1cc(Nc2ncnc(Nc3ccc(C)c(O)c3)n2)ccc1OC" . Observed pIC50: < 4.95

Tested on Angiopoietin-1 receptor (Homo sapiens): "O=C(Nc1cccc(C(F)(F)F)c1)N1CCN(c2ccccc2OCc2ccncc2)CC1" . Observed pIC50: 6.00 to 7.30

Tested on Angiopoietin-1 receptor (Homo sapiens): "CC(C)[C@@H](CO)Nc1nc(-c2ccncc2)nc2ccccc12" . Observed pIC50: 5.00 to 6.00

Tested on Angiopoietin-1 receptor (Homo sapiens): "COc1ccc(-c2nc(-c3ccncc3)nn2CCN(C(=O)Nc2ccccc2Cl)C2CCCC2)cc1Cl" . Observed pIC50: 5.00 to 6.00

Tested on Angiopoietin-1 receptor (Homo sapiens): "COc1cc(Nc2ncnc(-n3c(NCc4ccccn4)nc4ccccc43)n2)cc(OC)c1OCCN1CCOCC1" . Observed pIC50: < 5.11
